A collection of compounds and their measured pIC50
# studySystem: Staphylococcus aureus Topo IV (Staphylococcus aureus, UniProt P0C1S7+P0C1U9)
# Construct: purchased Inspiralis, Norwich, UK
# Sequence (P0C1S7 whole entry): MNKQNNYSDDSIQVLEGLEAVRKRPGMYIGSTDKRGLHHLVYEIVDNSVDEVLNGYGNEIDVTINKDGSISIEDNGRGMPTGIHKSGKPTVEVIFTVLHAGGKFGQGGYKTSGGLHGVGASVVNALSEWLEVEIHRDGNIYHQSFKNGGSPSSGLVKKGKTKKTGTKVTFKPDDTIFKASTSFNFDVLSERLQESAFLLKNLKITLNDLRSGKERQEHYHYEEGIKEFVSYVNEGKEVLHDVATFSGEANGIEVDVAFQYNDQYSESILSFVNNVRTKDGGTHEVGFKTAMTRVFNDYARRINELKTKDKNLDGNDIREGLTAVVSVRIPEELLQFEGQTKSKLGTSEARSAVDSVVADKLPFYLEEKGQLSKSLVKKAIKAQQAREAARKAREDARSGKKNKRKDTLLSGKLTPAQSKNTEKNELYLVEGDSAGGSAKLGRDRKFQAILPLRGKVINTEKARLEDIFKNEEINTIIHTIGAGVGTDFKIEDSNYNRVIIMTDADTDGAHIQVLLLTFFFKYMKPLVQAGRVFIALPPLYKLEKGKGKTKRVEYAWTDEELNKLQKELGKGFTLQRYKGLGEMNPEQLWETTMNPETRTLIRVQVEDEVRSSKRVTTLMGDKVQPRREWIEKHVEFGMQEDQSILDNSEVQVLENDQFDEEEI
# Sequence (P0C1U9 whole entry): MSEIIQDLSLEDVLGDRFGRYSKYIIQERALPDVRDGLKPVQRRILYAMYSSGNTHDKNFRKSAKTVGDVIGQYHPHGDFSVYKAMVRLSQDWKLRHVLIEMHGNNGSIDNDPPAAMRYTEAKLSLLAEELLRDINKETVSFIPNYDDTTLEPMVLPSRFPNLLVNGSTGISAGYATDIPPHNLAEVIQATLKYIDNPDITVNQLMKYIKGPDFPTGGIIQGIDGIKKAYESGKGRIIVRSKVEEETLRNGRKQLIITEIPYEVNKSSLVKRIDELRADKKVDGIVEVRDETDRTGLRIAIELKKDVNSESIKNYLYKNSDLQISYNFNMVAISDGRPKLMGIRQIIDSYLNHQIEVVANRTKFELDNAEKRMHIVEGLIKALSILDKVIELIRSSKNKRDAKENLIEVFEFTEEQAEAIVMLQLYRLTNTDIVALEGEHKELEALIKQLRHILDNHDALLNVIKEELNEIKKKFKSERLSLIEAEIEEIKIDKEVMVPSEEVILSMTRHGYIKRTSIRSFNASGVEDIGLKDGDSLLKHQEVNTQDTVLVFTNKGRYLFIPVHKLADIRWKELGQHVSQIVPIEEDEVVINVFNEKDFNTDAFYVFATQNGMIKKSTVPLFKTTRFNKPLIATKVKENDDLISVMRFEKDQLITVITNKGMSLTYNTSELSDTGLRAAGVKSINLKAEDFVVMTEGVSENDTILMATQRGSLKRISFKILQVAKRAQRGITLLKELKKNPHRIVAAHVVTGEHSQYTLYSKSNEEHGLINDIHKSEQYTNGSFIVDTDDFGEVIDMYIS
# procedureText: Staphylococcus aureus Topo IV decatenation assay
# Type: biochemical
# measurementContext: S. aureus Topo IV decatenation; read-out: TopolV Decat IC50
pIC50: −log10 of the molar value.

smiles: COc1ccc2ncc(F)c(CC[C@H]3OC[C@H](NCc4cc5c(cn4)OCCO5)CO3)c2n1
studySystem: Staphylococcus aureus Topo IV (Staphylococcus aureus, UniProt P0C1S7+P0C1U9)
pIC50: 4.21
--
smiles: COc1ccc2nccc(CC[C@H]3OC[C@H](NCc4cc5c(cn4)OCCC5)CO3)c2c1
studySystem: Staphylococcus aureus Topo IV (Staphylococcus aureus, UniProt P0C1S7+P0C1U9)
pIC50: 4.30 to 4.60
--
smiles: COc1ccc2ncc(=O)n(CC[C@H]3OC[C@H](NCc4ccc5c(c4)OCCO5)CO3)c2c1
studySystem: Staphylococcus aureus Topo IV (Staphylococcus aureus, UniProt P0C1S7+P0C1U9)
pIC50: < 4.00
--
smiles: COc1ccc2nccc(CC[C@H]3OC[C@H](NC/C=C/c4ccccc4)CO3)c2c1
studySystem: Staphylococcus aureus Topo IV (Staphylococcus aureus, UniProt P0C1S7+P0C1U9)
pIC50: 4.00 to 4.30
--
smiles: COc1ccc2nccc(CC[C@H]3OC[C@H](NCc4ccc(Cl)c(Cl)c4)CO3)c2c1
studySystem: Staphylococcus aureus Topo IV (Staphylococcus aureus, UniProt P0C1S7+P0C1U9)
pIC50: < 4.00

With those in mind, consider the next compound.
Using the record for COc1ccc2nccc(CC[C@H]3OC[C@H](NCc4ccc(Cl)cc4)CO3)c2c1 , report its pIC50. < 4.00
